assayed_system: human Claudin-6 (CLDN6) (human) (UniProt P56747)
assay_details: FACS, limiting dilution, ARK2 cells
Reported FACS signal at 0.32 nM is given for each of the following binders.
When you answer, write just the number.

# annotated cases, reported FACS signal at 0.32 nM shown
INSERT INTO measurements (binder, observable, recorded_value) VALUES
  ('AB S11 (antibody, V domains shown) VH: QVQLVQSGAEVKKPGASVKMSCKASGYTFTTYTIHWVRQAPGQGLEWIGVINPSSGYTEYAQKFQGRVTLTADKSTSTVYMELSSLRSEDTAVYFCANGDYYVAYWGQGTLVTVSS VL: DIQLTQSPSSLSASVGDRVTMTCTASSSVSSTYFHWYQQKPGKAPKLWIYSTSNLASGVPSRFSGSGSGTDYTLTISSMQPEDAATYYCHQYHRSPLTFGQGTKLEIK', 'FACS signal at 0.32 nM', 2130),
  ('AB S4 (antibody, V domains shown) VH: EVQLLESGGGLVQPGGSMRLSCAASGFTFSNYWMNWVRQAPGKGLEWIAQIRLKSDNYATHYTDSVKGRFTISRDDSKSTVYLQMNSLRAEDTGTYYCNDGPPSGSWGQGTLLTVSS VL: DIQMTQSPSSLSASVGDRVTITCRISENIYSYLAWYQQKPGKAPKLLVYNAKILVEGVPSRFSGSGSGTDFTLTISSLQPEDFGTYYCQHHYTVPWTFGQGTKLEIK', 'FACS signal at 0.32 nM', 354);

Please find the next binder below.
Ask | Find the recorded FACS signal at 0.32 nM belonging to AB S2 (antibody, V domains shown) VH: EVQLLESGGGLVQPGGSMRLSCAASGFTFSNYWMNWVRQAPGKGLEWIAQIRLKSDNYATHYADSVKGRFTISRDDSKRTVYLQMNSLRAEDTGTYYCSDGPPSGSWGQGTLLTVSS VL: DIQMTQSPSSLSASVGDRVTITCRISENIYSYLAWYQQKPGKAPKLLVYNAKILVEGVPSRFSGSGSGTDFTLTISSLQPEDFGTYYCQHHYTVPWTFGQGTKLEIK and report it.
Reply | 608
